# target or system: DNA dC->dU-editing enzyme APOBEC-3G (Homo sapiens)
# assay details: qHTS for inhibitors of Vif-A3G interactions: Validation (AID 588379)
# particulars: Vif-A3G protein interaction assay; series mostly up to 46.1 µM
Active and inactive are the calls of the source. Calls follow the shape of the dose curve; as a rule, active = well fitted inhibition curve with a large enough effect; inconclusive = small, poorly fitted or top-dose-only effect; inactive = flat fitted curve, though single readings scatter.
Hi! Could you answer with just one of these? active, inactive

-- ask Could you please tell me the result logged for Cc1cc(=O)cc2oc3cc(N)c(-c4c(C)cc(O)cc4O)c(C)c3nc1-2 in this assay?
-- reply inactive

-- ask Could you please tell me the result logged for O=C(/C=C/c1ccc(O)cc1)c1cccs1 in this assay?
-- reply inactive

-- ask Could you please tell me the result logged for CC(=O)Nc1ccc(-c2nc3ccc(Cl)cc3[nH]2)cc1 in this assay?
-- reply inactive

-- ask Could you please tell me the result logged for CC(=O)OCC1OC(Oc2cc(OC(C)=O)c3c(=O)cc(-c4ccc(OC(C)=O)c(OC(C)=O)c4)oc3c2)C(OC(C)=O)C(OC(C)=O)C1OC(C)=O (stereo unspecified) in this assay?
-- reply inactive

-- ask Could you please tell me the result logged for COc1cc2c(C(=O)c3ccccc3)c3c4c(cc(OC)c(OC)c4c2cc1OC)CCN3C in this assay?
-- reply inactive

-- ask Could you please tell me the result logged for COc1cc2c(C=O)c3c4c(cc(OC)c(OC)c4c2cc1OC)CCN3C in this assay?
-- reply active
